Below are IC50 measurements against RAC-alpha serine/threonine-protein kinase (Homo sapiens) drawn from the literature.
Sequence (P31749 whole entry): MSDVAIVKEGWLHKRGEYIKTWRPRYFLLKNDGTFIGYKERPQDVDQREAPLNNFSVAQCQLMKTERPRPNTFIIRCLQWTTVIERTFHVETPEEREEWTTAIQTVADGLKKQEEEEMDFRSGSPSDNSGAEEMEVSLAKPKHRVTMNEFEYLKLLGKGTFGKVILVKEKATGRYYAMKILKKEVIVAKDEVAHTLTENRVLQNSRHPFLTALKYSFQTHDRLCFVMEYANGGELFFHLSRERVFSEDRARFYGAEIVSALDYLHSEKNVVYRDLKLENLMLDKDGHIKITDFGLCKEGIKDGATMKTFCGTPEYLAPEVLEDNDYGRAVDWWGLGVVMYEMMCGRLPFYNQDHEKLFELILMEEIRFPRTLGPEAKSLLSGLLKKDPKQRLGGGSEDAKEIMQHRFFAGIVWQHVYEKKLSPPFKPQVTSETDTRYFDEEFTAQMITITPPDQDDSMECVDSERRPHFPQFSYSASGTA

C=CC(=O)N1CCC[C@H]1C(=O)Nc1cc2c(Nc3cccc(Cl)c3F)ncnc2cc1OCCOC : > 10 µM
NC(=O)c1cccc2c(NCc3ccc4c(c3)OCO4)nccc12 : > 10 µM
CNc1ncc2c(-c3ccc(N4CCN(C)CC4)nc3)nn(Cc3cn(Cc4ccccc4)nn3)c2n1 : > 10 µM

Below are some compounds; for each one, tell me its IC50.
1. COC[C@H]1OC(=O)/C(=C/N(CCO)C(C)(C)C)C2=C(O)C(=O)C3=C([C@H](OC(C)=O)C[C@]4(C)[C@@H](O)CC[C@@H]34)[C@]21C
2. CSc1ccccc1Nc1nc(N2CCN(C3CCNCC3)CC2)nc2c(NCC3CC3)ncnc12

["> 30 µM", "< 10 µM"]

====

Target or system RAC-alpha serine/threonine-protein kinase (Homo sapiens); metric pIC50; compiled from varied reports.
One number for each entry, as −log10 of the molar value.

Worked examples follow.
CCn1c(-c2nonc2N)nc2c(C#CC(C)(C)O)nc(OC[C@H](C)N)cc21 : 7.89
NCC(NC(=O)c1ccc(-c2c[nH]c3ncccc23)s1)c1ccccc1 (stereo not given) : 7.80
Cn1nccc1-c1cc(F)c(C(=O)N[C@@H]2CNCC[C@H]2c2ccc(F)c(F)c2)cc1F : 8.04

Consider the following items and state reported pIC50 for each.
1. CC(C)[C@H](NC(=O)[C@@H]1CC[C@H]2[C@H](NC(=O)CCCCN=C(N)N)COC(=O)N12)C(=O)NC(Cc1ccccc1)C(=O)NCc1ccccc1 (mixture of isomers)
2. CCn1c(-c2nonc2N)nc2c(C#CC(C)(C)O)nc(O[C@H](CCN)c3ccccc3)cc21

1: 4.40; 2: 8.40

====

pIC50: −log10 of the molar value.
Below, pIC50 values reported for RAC-alpha serine/threonine-protein kinase (Homo sapiens) across several publications.

Solved entries:
CN(C)CCOc1ccc2c(c1)CCn1nc(-c3ccc(Oc4ccccc4)cc3)c(C(N)=O)c1N2 : < 5.00
NC(=O)c1sc2c([N+](=O)[O-])cc(SC(F)(F)F)cc2[n+]1[O-] : < 4.00
Oc1cccc(Nc2ccnc3[nH]c4ccccc4c23)c1 : < 5.00
CC(C)(C)c1nnc2ccc(-c3ocnc3-c3ccc(F)cc3F)cn12 : < 5.00
Nc1ncnc2c1N=C(c1cccc(Cl)c1)CCN2 : < 4.00

I have 5 molecules here; please give me pIC50 for each one.
1. O=C(/C=C/c1nc2ccccc2[nH]1)c1c(-c2ccccc2)c2ccccc2[nH]c1=O
2. CNc1ncc2c(-c3ccc(N4CCN(C(=O)C(C)(C)C)CC4)nc3)nn(CC3CCCC3)c2n1
3. N#C/C(=C1/Nc2ccccc2S1)c1ccnc(NCCc2cccnc2)n1.O=C(O)C(F)(F)F.O=C(O)C(F)(F)F
4. Cn1ncc(Cl)c1-c1ccc(C(=O)N[C@@H]2CNCC[C@H]2c2cccc(F)c2)nc1
5. O=C(N[C@@H]1CNCC[C@H]1c1ccc(Cl)cc1)c1ccc(-c2ncnc3c2CCC3O)s1 (some centres not stated)

["4.35 to 5.79", "< 5.00", "< 5.00", 6.98, "< 6.00"]

# return pIC50 for each item in the list
1. CNC(=O)c1cc(Oc2ccc(NC(=O)Nc3cc(C(C)(C)C)nn3-c3ccc4ncccc4c3)c(F)c2)ccn1
2. CC(C)c1n[nH]c(C(F)(F)F)c1-c1ccnc(Nc2ccc(N3CCC(N(C)C)CC3)cn2)n1

1. < 6.00
2. < 5.00
